Experimental System: T1, anthrax protective antigen, wild type PA83 (Bacillus anthracis, UniProt P13423 30-764)
T1 construct: mature
T1 sequence (P13423 30-764): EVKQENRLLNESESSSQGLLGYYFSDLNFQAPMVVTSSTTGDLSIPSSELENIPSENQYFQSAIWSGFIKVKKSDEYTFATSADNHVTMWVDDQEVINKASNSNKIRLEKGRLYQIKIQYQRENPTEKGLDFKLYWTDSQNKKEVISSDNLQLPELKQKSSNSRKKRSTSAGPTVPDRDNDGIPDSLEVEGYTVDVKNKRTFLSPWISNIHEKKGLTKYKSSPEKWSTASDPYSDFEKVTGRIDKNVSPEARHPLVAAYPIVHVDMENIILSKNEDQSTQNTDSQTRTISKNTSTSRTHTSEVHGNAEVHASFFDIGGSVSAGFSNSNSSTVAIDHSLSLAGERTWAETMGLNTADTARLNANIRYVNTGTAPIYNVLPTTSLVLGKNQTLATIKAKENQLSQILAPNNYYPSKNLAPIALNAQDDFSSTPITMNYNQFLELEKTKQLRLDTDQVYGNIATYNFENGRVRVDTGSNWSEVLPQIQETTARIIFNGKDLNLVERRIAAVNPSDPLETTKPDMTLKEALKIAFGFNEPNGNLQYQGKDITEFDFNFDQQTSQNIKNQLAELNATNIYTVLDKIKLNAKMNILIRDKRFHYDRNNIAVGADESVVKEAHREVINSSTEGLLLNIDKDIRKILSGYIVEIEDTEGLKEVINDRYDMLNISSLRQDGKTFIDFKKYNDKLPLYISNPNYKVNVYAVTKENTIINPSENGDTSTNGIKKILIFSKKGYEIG
Measurement Description: SPR (Biacore 3000)
Measured Parameter: Kd

Binder: JKO-B8 (VHH) VHH: QLQLAESGGGLVQPGGSLRLSCTASGIIFDYYSVDWYRQAPGKERELVATITGDGSPNYADSVKGRFTISRDNAKKTVYLQMNGLKPEETAVYYCHAKRTIGTKSEYWGQGTQVTVSS
Observed Result: 200 nM

Binder: JKO-E12 (VHH) VHH: QVQLAETGGGLVQAGGSLRLSCLASRMSFSRRPMAWYRQAPGKQRERVATISSFGDTTNYTDSVEGRFTISRDNAKNTMYLQMNSLKPDDTAVYYCNTLLATYAWGQGTQVTVSS
Observed Result: 0.2 nM

Binder: JKO-H2 (VHH, also called JKO-H12) VHH: QVQLAESGGGLVQAGGSLRLSCAASGRTFSSYVMGWFRQAPGKEREFVAAISRNGGKTYYADSVKGRFTISRDGTENTVYLQMNSLKPEDTAVYYCAAAVAASAEFVTARSNFYEYWGQGTQVTVSS
Observed Result: 4 nM

# credit: patent US20210221874A1
